# target-system: GABA transporter 4 (Mus musculus, UniProt P31650)
# Sequence (P31650 whole entry): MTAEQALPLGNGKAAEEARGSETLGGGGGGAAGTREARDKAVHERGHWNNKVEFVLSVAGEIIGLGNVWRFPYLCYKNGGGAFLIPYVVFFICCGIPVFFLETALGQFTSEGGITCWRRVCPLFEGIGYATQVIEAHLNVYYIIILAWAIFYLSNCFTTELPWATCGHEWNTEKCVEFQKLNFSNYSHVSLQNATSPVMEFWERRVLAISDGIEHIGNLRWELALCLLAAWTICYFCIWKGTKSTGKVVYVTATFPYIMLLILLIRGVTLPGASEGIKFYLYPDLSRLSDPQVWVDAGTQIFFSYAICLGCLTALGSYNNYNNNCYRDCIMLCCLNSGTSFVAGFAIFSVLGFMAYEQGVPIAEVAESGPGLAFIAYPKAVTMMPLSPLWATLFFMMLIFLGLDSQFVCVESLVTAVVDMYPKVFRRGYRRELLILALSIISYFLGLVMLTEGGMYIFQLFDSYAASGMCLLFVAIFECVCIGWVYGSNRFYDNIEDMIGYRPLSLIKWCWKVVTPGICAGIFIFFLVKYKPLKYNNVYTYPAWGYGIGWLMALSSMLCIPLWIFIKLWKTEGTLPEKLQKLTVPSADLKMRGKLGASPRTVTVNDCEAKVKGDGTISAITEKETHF
# experimental-details: Inhibition of mouse GAT4 expressed in HEK293 cells assessed as decrease in [3H]GABA uptake preincubated for 25 mins followed by [3H]GABA addition measured after 4 mins by liquid scintillation counting analysis
measurement-label: IC50 (µM)

Solved entries (count: 3):
molecule	IC50 [µM]
COc1ccc(C(C#CCN2CCCC(C(=O)O)C2)c2ccc(OC)cc2)cc1 (racemic)	23.4
COc1ccc(C(C#CCN2CCCC(C(=O)O)C2)(c2ccc(OC)cc2)c2ccc3c(c2)OCO3)cc1 (racemic)	51.3
COc1ccc(C(C#CCCN2CCCC(C(=O)O)C2)(c2ccc(OC)cc2)c2ccc(OC)cc2)cc1 (racemic)	25.7

1: COc1ccc(C(C#CCN2CCCC(C(=O)O)C2)(c2ccc(OC)cc2)c2ccc(OC)cc2)cc1 (racemic)
2: C=C=C(CN1CCCC(C(=O)O)C1)C(c1ccc(OC)cc1)(c1ccc(OC)cc1)c1ccc(OC)cc1 (racemic)
[ask] Looking only at measured IC50, which entry is lower, 1 or 2 ? Your choice should be expressed through its label.
[reply] 1
(1: 29.5 µM, 2: 49 µM)
